- test-name: Temperature of nitrogen/gas evolution, thermal stability
- study-conditions: begins to evolve nitrogen (slowly)
parameter: temperature at which it begins to evolve nitrogen (°C)
Numbers only, in °C.

Completed entries (count: 6):
CC(C)CC(C#N)(CC(C)C)N=NC(C)(C)C = 70
CC(C)(C)N=NC(=O)NCC(=O)O [XVII, tert.-butylazo-N-carboxymethylformamide] = 60
CC(C)(C)N=NC(C)(C#N)C1CC1 (centres unmarked) = 75
COC(=O)CNC(=O)N=NC(C)(C)C = 140
CC1CC(C)(C)CC(C#N)(N=NC(C)(C)C)C1 (centres unmarked) = 100
CC(C)(C)N=NC(C)(C#N)CCC(=O)O (centres unmarked) = 85

Below are 2 compounds. Give each one its temperature at which it begins to evolve nitrogen.
1. CC(C)(C#N)N=NC(C)(C)c1ccccc1
2. CC(C)(C)N=NC(C)(C#N)C(C)(C)C (centres unmarked)

Outgoing:
1. 55
2. 95

---

- test-name: Temperature of nitrogen/gas evolution, thermal stability
- study-conditions: evolves nitrogen at / above
Binary label based on temperature at which it evolves nitrogen with cut-off 40 °C: below gives y, not below gives n.

# example entries with known answers
CC(C)OC(=O)N=NC(C)(C)c1ccccc1 [Isopropyl tert.-cumylazocarboxylate] = n
CC(C)(C)N=NC(=O)C(C)(C)C [Example XIX, Pivaloyl tert.-butyldiimide] = y
CC(C)(C)N=NC(=O)c1ccccc1 [Example XX, Benzoyl tert.-butyldiimide] = y
CC(C)(C)N=NC1=CCCCC1 [XXIII, 1(-tert.-butylazo)cyclohexene] = n

Incoming: In plain terms, does CC(C)CC(C)(N=NC(C)(C)C)OOC(C)(C)CCC(C)(C)OOC(C)(CC(C)C)N=NC(C)(C)C (stereo not shown) [LXV] come in under 40 °C for temperature at which it evolves nitrogen?
Outgoing: y
